Could you please report measured Inhibition for the items listed next?
experimental-target: Protein kinase C (PKC) (Rattus norvegicus) (UniProt P05696+P68403+P09216+P63319+P09215+Q64617+Q9WTQ0+P09217)
test-method-notes: Inhibition of partially purified rat brain protein kinase C

Need Inhibition, item NC1=NC(=O)c2c1c1c3ccccc3n3c1c1c2c2ccccc2n1[C@@H]1CC[C@H]3O1
13 nM

Thanks! And CN1C(=O)c2c(c3c4ccccc4n4c3c3c2c2ccccc2n3[C@@H]2CC[C@H]4O2)C1=O ?
> 5000 nM

Try this compound too: O=C1NC(=O)c2c1c1c3ccccc3n3c1c1c2c2ccccc2n1[C@@H]1O[C@H]3C[C@H]1C(=O)O
20 nM

Moving on to the next compound: O=C1NC(=S)c2c1c1c3ccccc3n3c1c1c2c2ccccc2n1[C@H]1CC[C@@H]3O1
58 nM

And then CN(C)C[C@@H]1C[C@@H]2O[C@H]1n1c3ccccc3c3c4c(c5c6ccccc6n2c5c31)C(=O)NC4=O , what is it?
4 nM

Please give the result for O=C1NCc2c1c1c3ccccc3n3c1c1c2c2ccccc2n1[C@H]1CC[C@@H]3O1 too.
18 nM

And what about the compound O=C1NC(=O)c2c1c1c3ccccc3n3c1c1c2c2ccccc2n1[C@@H]1O[C@H]3C[C@@H]1CO ?
1.7 nM

Also O=C1NC(=O)c2c1c1c3ccccc3n3c1c1c2c2ccccc2n1[C@H]1CC[C@@H]3O1 , if possible.
19 nM

* * *

test-method-notes: Displacement of ATP from myosin light chain kinase
measured-property: pKi
Quick note: pKi values are minus log10 of concentrations in mol/L.

Reported pKi for O=C1NC(=O)c2c1c1c3ccccc3n3c1c1c2c2ccccc2n1[C@@H]1O[C@H]3C[C@@H]1CO : what is it?
9.15
